test system: ISC-enriched organoids; assay: Primary screen, 384-well 2.5-D organoid differentiation (ENR+CD, 6 days, Target Selective Inhibitor Library, vs whole-plate median): ATP (CellTiter-Glo 3D, CTG); conditions: Dose 0.40 uM; primary screen, standard z score
Below is a list of entries, each paired with its recorded Z.CTG value.

Worked set:
                         structure_notation           target_system  data_value
0  CC(C)(C)c1cc(C(C)(C)C)c(NC(=O)c2c[nH]c3ccccc3c2=O)cc1O  ISC-enriched organoids       0.347
1  CC#CCn1c(N2CCC[C@@H](N)C2)nc2c1c(=O)n(Cc1nc(C)c3ccccc3n1)c(=O)n2C  ISC-enriched organoids       0.499

We now examine a further molecule.
Under ISC-enriched organoids: Z.CTG value of C=CC(=O)N1CCC[C@@H](n2nc(-c3ccc(Oc4ccccc4)cc3)c3c(N)ncnc32)C1 ?
−1.112

* * *

test system: ISC-enriched organoids; test: Primary screen, 384-well 2.5-D organoid differentiation (ENR+CD, 6 days): carbachol-induced lysozyme secretion (LYZ.S); type: cell-based, murine; settings: strictly standardized mean difference; primary screen; 2nd of the 4 dose lines of the treatment (dose not given)
Below is a list of entries, each paired with its recorded SSMD.LYZ.S value.
Output spec: single numeric token, no unit.

Worked set:
In [3]: df
Out[3]:
                         structure_notation           target_system  data_value
0  O=C(O)c1ccc(Nc2ncc3c(n2)-c2ccc(Cl)cc2C(c2c(F)cccc2F)=NC3)cc1  ISC-enriched organoids       0.554
1  Cc1cc(Nc2cc(CN3CCOCC3)c3nc(C)c(Cc4ccc(Cl)cc4F)n3n2)n[nH]1  ISC-enriched organoids       0.595
2  C[C@](O)(COc1ccc(C#N)cc1)C(=O)Nc1ccc(C#N)c(C(F)(F)F)c1  ISC-enriched organoids       0.164
3  CCOC(=O)N1CCC(=C2c3ccc(Cl)cc3CCc3cccnc32)CC1  ISC-enriched organoids       0.082

Under ISC-enriched organoids: SSMD.LYZ.S value of C[C@H](NC(=O)[C@@H](O)c1cc(F)cc(F)c1)C(=O)N[C@@H]1C(=O)N(C)c2ccccc2-c2ccccc21 ?
0.171

* * *

test system: ISC-enriched organoids; experiment: Primary screen, 384-well 2.5-D organoid differentiation (ENR+CD, 6 days, Target Selective Inhibitor Library, vs whole-plate median): ATP (CellTiter-Glo 3D, CTG); conditions: Dose 2.00 uM; primary screen, standard z score
Counter-ions that a name gives are not always drawn.
ATTRIBUTE MEASURED: Z.CTG
Output spec: single numeric token, no unit.

>>> df
                                   compound  data_value
0  CCCCc1nc(Cl)c(CO)n1Cc1ccc(-c2ccccc2-c2nnn[n-]2)cc1.[K+]      −0.193
1  CC#CCn1c(N2CCC[C@@H](N)C2)nc2c1c(=O)n(Cc1nc(C)c3ccccc3n1)c(=O)n2C       0.054

Data request, read-out Z.CTG, for CC1=C(C(=O)Nc2cc3cn[nH]c3cc2F)C(c2ccc(C(F)(F)F)cc2)CC(=O)N1 (stereo not shown) [GSK429286A]
1.166

Data request, read-out Z.CTG, for CCOC(=O)[C@H](CCc1ccccc1)N[C@@H](C)C(=O)N1C(=O)N(C)C[C@H]1C(=O)O [Imidapril HCl]
−0.564

Hello, the source for this data is patent US20230398130A1, in case you need it.
